Values from ChEMBL document CHEMBL6121003

Measured on: CYP3A4 (Homo sapiens, UniProt P08684)
Sequence (P08684 whole entry): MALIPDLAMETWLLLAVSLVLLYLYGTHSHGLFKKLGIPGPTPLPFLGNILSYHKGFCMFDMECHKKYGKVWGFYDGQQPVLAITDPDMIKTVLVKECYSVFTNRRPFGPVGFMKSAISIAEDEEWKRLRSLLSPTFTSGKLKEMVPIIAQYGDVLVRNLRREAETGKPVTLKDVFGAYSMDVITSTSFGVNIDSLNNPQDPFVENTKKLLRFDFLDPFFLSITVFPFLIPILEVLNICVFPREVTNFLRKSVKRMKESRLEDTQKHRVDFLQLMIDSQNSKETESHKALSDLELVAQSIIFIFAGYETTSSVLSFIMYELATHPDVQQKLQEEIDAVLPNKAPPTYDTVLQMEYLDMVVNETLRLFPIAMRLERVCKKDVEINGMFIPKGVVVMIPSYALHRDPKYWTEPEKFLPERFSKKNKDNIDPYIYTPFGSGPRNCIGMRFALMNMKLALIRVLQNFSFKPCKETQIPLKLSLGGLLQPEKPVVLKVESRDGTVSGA
Experimental details: Inhibition of CYP3A4 (unknown origin) at 10 uM relative to control
Type: ADME
Endpoint name: inhibition at 10 µM (%)
Your answer should be a plain number; it is taken to be in %.

Record request: inhibition at 10 µM value, item "O=C(Nc1ccc(C(=O)N2CCC[C@H]2CO)cc1)Nc1ccc(-c2nc(N3CCOCC3)nc(N3CCOCC3)n2)cc1"
20

----------
Measured on: Phosphatidylinositol 4,5-bisphosphate 3-kinase catalytic subunit alpha isoform (Homo sapiens)
Sequence (P42336 whole entry, canonical isoform): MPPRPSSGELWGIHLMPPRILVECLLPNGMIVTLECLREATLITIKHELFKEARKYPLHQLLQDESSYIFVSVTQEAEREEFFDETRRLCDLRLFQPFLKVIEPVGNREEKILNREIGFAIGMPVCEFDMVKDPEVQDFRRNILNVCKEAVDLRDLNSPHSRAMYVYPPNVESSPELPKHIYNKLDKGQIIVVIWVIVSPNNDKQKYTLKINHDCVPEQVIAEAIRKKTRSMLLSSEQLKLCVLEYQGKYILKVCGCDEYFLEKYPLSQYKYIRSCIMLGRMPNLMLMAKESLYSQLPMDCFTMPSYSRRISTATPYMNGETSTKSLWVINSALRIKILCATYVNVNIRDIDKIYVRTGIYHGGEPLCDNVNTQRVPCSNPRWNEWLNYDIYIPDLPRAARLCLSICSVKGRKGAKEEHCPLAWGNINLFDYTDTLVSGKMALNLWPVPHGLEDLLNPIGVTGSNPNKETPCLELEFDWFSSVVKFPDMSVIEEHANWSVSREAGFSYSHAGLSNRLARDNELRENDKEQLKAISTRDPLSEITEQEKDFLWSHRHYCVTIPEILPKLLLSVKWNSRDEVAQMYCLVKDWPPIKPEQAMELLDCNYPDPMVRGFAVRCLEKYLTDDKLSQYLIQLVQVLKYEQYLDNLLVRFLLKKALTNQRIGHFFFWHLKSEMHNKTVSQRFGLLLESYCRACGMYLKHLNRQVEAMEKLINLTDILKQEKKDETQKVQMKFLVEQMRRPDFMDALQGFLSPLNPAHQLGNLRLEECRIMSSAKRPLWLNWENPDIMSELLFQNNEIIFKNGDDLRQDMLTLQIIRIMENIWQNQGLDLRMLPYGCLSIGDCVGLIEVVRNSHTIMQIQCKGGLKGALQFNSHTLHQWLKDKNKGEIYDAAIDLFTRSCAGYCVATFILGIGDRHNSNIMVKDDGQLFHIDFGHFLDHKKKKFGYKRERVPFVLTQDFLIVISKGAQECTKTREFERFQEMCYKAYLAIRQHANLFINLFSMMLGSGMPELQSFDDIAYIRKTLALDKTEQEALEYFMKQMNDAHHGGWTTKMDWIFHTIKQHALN
Endpoint name: pIC50
Note: pIC50 values are expressed as the negative base-10 logarithm of concentration in M.

Record request: pIC50 value, item O=C(c1ccc(NC(=S)Nc2ccc(-c3nc(N4CCOCC4)nc(N4CCOCC4)n3)cc2)cc1)N1CCN(C(=O)C2CCCO2)CC1 (stereo not drawn)
7.69

Next record, please: O=C(c1ccc(NC(=S)Nc2ccc(-c3nc(N4CCOCC4)nc(N4CCOCC4)n3)cc2)cc1)N1CCCC(CO)C1 (stereo not drawn)
7.44

Next record, please: O=C(c1ccc(NC(=S)Nc2ccc(-c3nc(N4CCOCC4)nc(N4CCOCC4)n3)cc2)cc1)N1CCCCC1CO (stereo not drawn)
7.15
